Target: brain receptors (3H-diazepam binding)
Experiment: Inhibition of the binding of 3H-diazepam to the brain receptors (rat frontal cortex P2-synaptosomal fraction)
Conditions: inhibition of 3H-diazepam binding, 3H-diazepam 1.5 nM, pH 7.4, 20 minutes in ice
measured-metric: IC50 (nM)

compound="O=[N+]([O-])c1cccc2nc3c(nc12)N1CCCCC1CO3 (centres unmarked)" measured_metric=IC50 reported_value=210
compound="c1ccc2nc3c(nc2c1)OCC1CCCN31 (single isomer, unassigned)" measured_metric=IC50 reported_value=87
compound="Clc1ccc2nc3c(nc2c1)OCC1CCCCN31 (centres unmarked)" measured_metric=IC50 reported_value=14
compound="Nc1cccc2nc3c(nc12)N1CCCCC1CO3 (centres unmarked)" measured_metric=IC50 reported_value=20
compound="CN(C)C=Nc1cccc2nc3c(nc12)N1CCCCC1CO3 (centres unmarked)" measured_metric=IC50 reported_value=55
compound="FC(F)(F)c1ccc2nc3c(nc2c1)OCC1CCCCN31 (centres unmarked)" measured_metric=IC50 reported_value=352
compound="Clc1ccc2nc3c(nc2c1)N1CCCCC1CO3 (centres unmarked)" measured_metric=IC50 reported_value=22
compound="Nc1ccc2nc3c(nc2c1)OCC1CCCCN31 (centres unmarked)" measured_metric=IC50 reported_value=39

====

Listing: % Inhibition of Diazepam Binding of selected compounds
Test system: brain receptors (3H-diazepam binding)
Experiment: Inhibition of the binding of 3H-diazepam to the brain receptors (rat frontal cortex P2-synaptosomal fraction)
Parameters: species or system male albino rats of the Wistar strain
Details: 3H-diazepam 1.5 nM, pH 7.4, 20 minutes in ice, test concentration not given
measured-metric: % Inhibition of Diazepam Binding (%)

compound="O=[N+]([O-])c1cccc2nc3c(nc12)N1CCCCC1CO3 (centres unmarked)" target="brain receptors (3H-diazepam binding)" reported_value=72
compound="FC(F)(F)c1ccc2nc3c(nc2c1)OCC1CCCCN31 (centres unmarked)" target="brain receptors (3H-diazepam binding)" reported_value=90
compound="Clc1ccc2nc3c(nc2c1)OCC1CCCCN31 (centres unmarked)" target="brain receptors (3H-diazepam binding)" reported_value=97
compound="Nc1ccc2nc3c(nc2c1)OCC1CCCCN31 (centres unmarked)" target="brain receptors (3H-diazepam binding)" reported_value=93
compound="Clc1ccc2nc3c(nc2c1)N1CCCCC1CO3 (centres unmarked)" target="brain receptors (3H-diazepam binding)" reported_value=95
compound="Nc1cccc2nc3c(nc12)N1CCCCC1CO3 (centres unmarked)" target="brain receptors (3H-diazepam binding)" reported_value=98
compound="CN(C)C=Nc1cccc2nc3c(nc12)N1CCCCC1CO3 (centres unmarked)" target="brain receptors (3H-diazepam binding)" reported_value=96
compound="c1ccc2nc3c(nc2c1)OCC1CCCN31 (single isomer, unassigned)" target="brain receptors (3H-diazepam binding)" reported_value=87
